system: A498 (Kidney Carcinoma); test: Bliss excess, mean over the matrix (fraction); higher = more synergy;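 note: after 72 h of two-drug dosing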
MEASURED_PROPERTY: Bliss excess
Answer with a number only.

Query: I'd like to know its Bliss excess. The compound in question is CN(C)CCCOc1ccc(-c2ccc3ncc4c(c3c2)n(C2CCOCC2)c(=O)n4C)cn1 [AZD0156] + C[C@@H]1COCCN1C2=NC(=NC(=C2)C3(CC3)[S@](=N)(=O)C)C4=C5C=CNC5=NC=C4 [AZD6738] (first compound max 1 µM, 7x7, partner max 10 µM)
Reply: -0.0347

Query: I'd like to know its Bliss excess. The compound in question is C=CCn1c(=O)c2cnc(Nc3ccc(N4CCN(C)CC4)cc3)nc2n1-c1cccc(C(C)(C)O)n1 [AZD1775] + C[C@@H]1COCCN1C2=NC(=NC(=C2)C3(CC3)[S@](=N)(=O)C)C4=C5C=CNC5=NC=C4 [AZD6738] (first compound max 1 µM, partner max 10 µM)
Reply: -0.0536

Query: I'd like to know its Bliss excess. The compound in question is COc1nnc2ccc(N3CCC(c4ccc(OCCN5CCN(C)C(=O)[C@H]5C)cc4)CC3)nn12 [AZD5153] + Cn1cnc2c(F)c(Nc3ccc(Br)cc3Cl)c(C(=O)NOCCO)cc21 [Selumetinib] (first compound max 1 µM, 7x7, partner max 10 µM)
Reply: 0.0016

Query: I'd like to know its Bliss excess. The compound in question is COc1cccc(OCCCN)c1-c1cc(Nc2cnc(C#N)cn2)n[nH]1 [Prexasertib] + O=C(c1cc(Cc2n[nH]c(=O)c3ccccc23)ccc1F)N1CCN(C(=O)C2CC2)CC1 [Olaparib] (first compound max 1 µM, 7x7, partner max 10 µM)
Reply: -0.0622

Query: I'd like to know its Bliss excess. The compound in question is CS(=O)(=O)CCNCc1ccc(-c2ccc3ncnc(Nc4ccc(OCc5cccc(F)c5)c(Cl)c4)c3c2)o1 [Lapatinib] + C[C@@H](Oc1cc(-c2cnn(C3CCNCC3)c2)cnc1N)c1c(Cl)ccc(F)c1Cl [Crizotinib] (first compound max 10 µM, 7x7, partner max 10 µM)
Reply: -0.0592

Query: I'd like to know its Bliss excess. The compound in question is CC1(C)CCC(CN2CCN(c3ccc(C(=O)NS(=O)(=O)c4ccc(NCC5CCOCC5)c([N+](=O)[O-])c4)c(Oc4cnc5[nH]ccc5c4)c3)CC2)=C(c2ccc(Cl)cc2)C1 [Venetoclax] + C[C@@H](Nc1cc(F)cc(F)c1)c1cc(C(=O)N(C)C)cc2c(=O)cc(N3CCOCC3)oc12 [AZD8186] (first compound max 1 µM, 7x7, partner max 3 µM)
Reply: -0.043

Query: I'd like to know its Bliss excess. The compound in question is CC1(C)CCC(CN2CCN(c3ccc(C(=O)NS(=O)(=O)c4ccc(NCC5CCOCC5)c([N+](=O)[O-])c4)c(Oc4cnc5[nH]ccc5c4)c3)CC2)=C(c2ccc(Cl)cc2)C1 [Venetoclax] + COc1cc(Nc2ncc3c(n2)-c2ccc(Cl)cc2C(c2c(F)cccc2OC)=NC3)ccc1C(=O)O [Alisertib] (first compound max 1 µM, 7x7, partner max 10 µM)
Reply: -0.0352
